System: Calu-3
Assay: cell viability relative to DMSO; higher = less toxic
Conditions: 72 h; 1 nM
Record form. Attribute: cell viability. Fill in for each entry.
Give bare numbers, in %.

Return reported cell viability values for all items listed beneath this line.
1. O=c1cc[nH]c(=S)[nH]1 [2-thiouracil]
2. Cc1c(N)nc([C@H](CC(N)=O)NC[C@H](N)C(N)=O)nc1C(=O)N[C@H](C(=O)N[C@H](C)[C@@H](O)[C@H](C)C(=O)N[C@H](C(=O)NCCc1nc(-c2nc(C(=O)NCCCNCCCCN)cs2)cs1)[C@@H](C)O)[C@@H](O[C@@H]1O[C@@H](CO)[C@@H](O)[C@H](O)[C@@H]1O[C@@H]1O[C@H](CO)[C@@H](O)[C@H](OC(N)=O)[C@@H]1O)c1cnc[nH]1 [bleomycetin]
3. CC1(C)C(=O)N(CCN2CCC(C(=O)c3ccc(F)cc3)CC2)c2ccccc21
4. O=c1[nH]c(=O)n([C@H]2C[C@H](O)[C@@H](CO)O2)cc1C(F)(F)F [trifluridine]
5. COC1(C2=NCCN2)COc2ccccc2O1 (stereo not drawn)

Reply:
1: 102; 2: 94; 3: 99.5; 4: 106; 5: 100
